Test system: SR leukemia
Experiment: NCI-60 one-dose screen, 48 h (100 = growth as untreated, 0 = no growth, -100 = all killed)
Details: 10 µM unless noted
This is part of a sample that, as a whole, favours compounds with a hit. Of some 83,000 tested, about 20% had one in any assay.
Dear colleague, classification is by growth, with ranges listed here: low bin: < -10%; mid bin: ≥ -10% and < 30%; high bin: ≥ 30%

Qu. Into which category would you place CC(Cc1cccc(C(F)(F)F)c1)NCCOC(=O)c1ccccc1 (stereo not drawn) ?
Ans. high bin

Qu. Into which category would you place COc1ccc(/C=C/C(=O)c2ccc(NC(=O)CSc3nnc(-c4cc(OC)c(OC)c(OC)c4)o3)cc2)cc1 ?
Ans. low bin

Qu. Into which category would you place O=S1(=O)N(CCNc2nccc(-c3c(-c4cccc(O)c4)nc4sccn34)n2)CCN1Cc1ccccc1 ?
Ans. high bin

Qu. Into which category would you place N#CC1=C(N)Oc2c(ccc3ccccc23)C1c1cc(=O)oc2ccc(Cl)cc12 (stereo not drawn) ?
Ans. mid bin

Qu. Into which category would you place COc1cccc(-c2nc3sccn3c2-c2ccnc(NCCNC(=O)Nc3cccc(C(F)(F)F)c3)n2)c1 ?
Ans. high bin

Qu. Into which category would you place CN1C(=O)C2(NN=C(c3cccc4ccccc34)S2)c2ccccc21 (stereo not drawn) ?
Ans. mid bin

Qu. Into which category would you place COc1cc(-c2nc3ccccc3s2)ccc1OCc1nc2n(n1)S(=O)(=O)c1ccccc1N2C ?
Ans. mid bin

Qu. Into which category would you place CNCCCOc1c(Br)cc(CCNC(=O)/C(Cc2ccc(OC)c(Br)c2)=N/O)cc1Br ?
Ans. low bin

Qu. Into which category would you place Cc1cc2c(cc1C)N(C(=O)CCl)CCN2C(=O)CCl ?
Ans. low bin

Qu. Into which category would you place N#Cc1c(N)nc(Cl)c(C#N)c1C(=O)c1ccccc1 ?
Ans. low bin

Qu. Into which category would you place CCn1cc(/C=C2\Oc3cc(OCC#N)ccc3C2=O)c2cc(OC)ccc21 ?
Ans. mid bin

Qu. Into which category would you place O=C(c1ccccc1)[C@H]1[C@@H]2CCCN2[C@]2(C(=O)Nc3ccc(F)cc32)[C@]12C(=O)Nc1ccccc12 ?
Ans. high bin
